Record form. Attribute: minimum inhibitory concentration. Fill in for each entry.
System: Mannheimia haemolytica
Assay: minimum inhibitory concentration (MIC)
Details: isolate (source animal id): 152
Give bare numbers, in µg/mL.

Examples with their reported minimum inhibitory concentration follow.
CN(C)[C@@H]1C(O)=C(C(N)=O)C(=O)[C@@]2(O)C(O)=C3C(=O)c4c(O)cccc4[C@@](C)(O)[C@H]3C[C@@H]12 [Tetracycline]; 4
CCN1CCN(c2cc3c(cc2F)c(=O)c(C(=O)O)cn3C2CC2)CC1 [Enrofloxacin]; 1

Consider now this further compound.
[Q] What value of minimum inhibitory concentration has been reported for the following compound? CNC(C)C1CCC(N)C(OC2C(N)CC(N)C(OC3OCC(C)(O)C(NC)C3O)C2O)O1 (centres undefined) [Gentamicin]
[A] 2

* * *

Kindly supply the reported minimum inhibitory concentration values for the records listed here.
Tested on: Escherichia coli
Experiment: minimum inhibitory concentration (MIC)
Conditions: isolate (source animal id): 181

# example entries with known answers
COc1cc(NS(=O)(=O)c2ccc(N)cc2)nc(OC)n1; > 256 µg/mL
CC[C@H]1OC(=O)C[C@@H](O)[C@H](C)[C@@H](O[C@@H]2O[C@H](C)[C@@H](O)[C@H](N(C)C)[C@H]2O)[C@@H](CCN2C[C@H](C)C[C@H](C)C2)C[C@@H](C)C(=O)/C=C/C(C)=C/[C@@H]1CO[C@@H]1O[C@H](C)[C@@H](O)[C@@H](OC)[C@H]1OC; > 16 µg/mL
CNC(C)C1CCC(N)C(OC2C(N)CC(N)C(OC3OCC(C)(O)C(NC)C3O)C2O)O1 (stereo not given); ≤ 1 µg/mL

Each compound below has a reported value. Please supply its minimum inhibitory concentration.
1. CCCNC[C@]1(O)[C@H](C)O[C@@H](O[C@H]2[C@H](C)[C@@H](O[C@@H]3O[C@H](C)C[C@H](N(C)C)[C@H]3O)[C@](C)(O)C[C@@H](C)CN[C@H](C)[C@@H](O)[C@](C)(O)[C@@H](CC)OC(=O)[C@@H]2C)C[C@@]1(C)OC
2. COc1cc(Cc2cnc(N)nc2N)cc(OC)c1OC.Cc1cc(NS(=O)(=O)c2ccc(N)cc2)no1

[A]
1: ≤ 8 µg/mL; 2: ≤ 2 µg/mL

* * *

Consider the following compounds; for each one, report its minimum inhibitory concentration.
Test system: Escherichia coli
Assay: minimum inhibitory concentration (MIC)
Settings: isolate (source animal id): 111

Known results for compounds:
CC1(C)S[C@@H]2[C@H](NC(=O)[C@H](N)c3ccccc3)C(=O)N2[C@H]1C(=O)O; 2 µg/mL
CCN1CCN(c2cc3c(cc2F)c(=O)c(C(=O)O)cn3C2CC2)CC1; > 2 µg/mL
CO/N=C(\C(=O)N[C@@H]1C(=O)N2C(C(=O)O)=C(CSC(=O)c3ccco3)CS[C@H]12)c1csc(N)n1; ≤ 0.25 µg/mL

Now turn to the next compound.
[Q] Name the recorded minimum inhibitory concentration for CNC(C)C1CCC(N)C(OC2C(N)CC(N)C(OC3OCC(C)(O)C(NC)C3O)C2O)O1 (centres undefined) .
[A] ≤ 1 µg/mL

* * *

Test system: Pasteurella multocida
Assay: minimum inhibitory concentration (MIC)
Conditions: isolate (source animal id): 140
PARAMETER: minimum inhibitory concentration

Below, 2 molecules whose answers are already recorded.
CC[C@H]1OC(=O)C[C@@H](O)[C@H](C)[C@@H](O[C@@H]2O[C@H](C)[C@@H](O)[C@H](N(C)C)[C@H]2O)[C@@H](CCN2CCCCC2)C[C@@H](C)C(=O)/C=C/C(C)=C/[C@@H]1CN1CCCCC1; > 16 µg/mL
CC[C@H]1OC(=O)C[C@@H](O)[C@H](C)[C@@H](O[C@@H]2O[C@H](C)[C@@H](O)[C@H](N(C)C)[C@H]2O)[C@@H](CCN2C[C@H](C)C[C@H](C)C2)C[C@@H](C)C(=O)/C=C/C(C)=C/[C@@H]1CO[C@@H]1O[C@H](C)[C@@H](O)[C@@H](OC)[C@H]1OC; > 16 µg/mL

Okay, now this molecule:
[Q] # query: minimum inhibitory concentration of entry CC[C@H]1OC(=O)C[C@@H](O)[C@H](C)[C@@H](O[C@@H]2O[C@H](C)[C@@H](O[C@H]3C[C@@](C)(O)[C@@H](O)[C@H](C)O3)[C@H](N(C)C)[C@H]2O)[C@@H](CC=O)C[C@@H](C)C(=O)/C=C/C(C)=C/[C@@H]1CO[C@@H]1O[C@H](C)[C@@H](O)[C@@H](OC)[C@H]1OC
[A] > 32 µg/mL
